Target: Adenosine receptor A2a (Homo sapiens, UniProt P29274, V84L)
Sequence (P29274 whole entry V84L): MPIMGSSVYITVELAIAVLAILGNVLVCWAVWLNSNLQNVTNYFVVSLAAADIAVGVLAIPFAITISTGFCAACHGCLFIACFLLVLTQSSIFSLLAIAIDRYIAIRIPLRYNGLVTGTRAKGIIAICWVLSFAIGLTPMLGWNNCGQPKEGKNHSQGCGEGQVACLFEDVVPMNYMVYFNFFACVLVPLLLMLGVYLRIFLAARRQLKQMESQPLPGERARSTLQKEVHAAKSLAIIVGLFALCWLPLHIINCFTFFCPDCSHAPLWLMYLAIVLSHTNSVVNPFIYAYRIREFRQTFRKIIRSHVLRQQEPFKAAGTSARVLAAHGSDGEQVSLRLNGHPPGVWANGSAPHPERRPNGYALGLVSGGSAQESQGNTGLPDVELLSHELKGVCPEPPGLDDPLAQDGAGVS
Test: biochemical
pKi values by entry
The scale used: pKi is minus the common logarithm of the concentration in molar units.

>>> df
                                   molecule   val
0  N=C(N)NC(=O)c1nc(Cl)c(N)nc1N [AMILORIDE]  4.94
1  COc1cc(OC)cc(C(CNc2ncnc3c2ncn3[C@@H]2O[C@H](CO)[C@@H](O)[C@H]2O)c2ccccc2C)c1 (stereo not given in full)  7.72
2      O=c1c(O)c(-c2ccccc2)oc2cc(O)cc(O)c12  4.74

Prompt line: Item: COC(=O)C1=C(C)NC(C)=C(C(=O)OC)C1c1ccccc1[N+](=O)[O-] Test system: Adenosine receptor A2a (Homo sapiens, UniProt P29274, V84L) Read-out: pKi Value: ?
Response line: 4.65

Prompt line: Item: CCOC(=O)c1sc(SCc2ccccc2)c2c1CCCC2=O Test system: Adenosine receptor A2a (Homo sapiens, UniProt P29274, V84L) Read-out: pKi Value: ?
Response line: 4.14

---

Endpoint: pKi. System: Adenosine receptor A2a (Homo sapiens, UniProt P29274). Items follow.
Sequence (P29274 whole entry): as the sequence (P29274 whole entry V84L) above, with L84V counted along it
The scale used: pKi is minus the common logarithm of the concentration in molar units.

>>> print(df.to_string())
                                   compound   val
0  COC(=O)C1=C(C)NC(C)=C(C(=O)OC)C1c1ccccc1[N+](=O)[O-] [NIFEDIPINE]  3.61

Below: the item to evaluate.
Prompt line: Item: N=C(N)NC(=O)c1nc(Cl)c(N)nc1N [AMILORIDE] Test system: Adenosine receptor A2a (Homo sapiens, UniProt P29274) Read-out: pKi Value: ?
Response line: 4.92

---

Target: Adenosine receptor A2a (Homo sapiens, UniProt P29274, H250N)
Sequence (P29274 whole entry H250N): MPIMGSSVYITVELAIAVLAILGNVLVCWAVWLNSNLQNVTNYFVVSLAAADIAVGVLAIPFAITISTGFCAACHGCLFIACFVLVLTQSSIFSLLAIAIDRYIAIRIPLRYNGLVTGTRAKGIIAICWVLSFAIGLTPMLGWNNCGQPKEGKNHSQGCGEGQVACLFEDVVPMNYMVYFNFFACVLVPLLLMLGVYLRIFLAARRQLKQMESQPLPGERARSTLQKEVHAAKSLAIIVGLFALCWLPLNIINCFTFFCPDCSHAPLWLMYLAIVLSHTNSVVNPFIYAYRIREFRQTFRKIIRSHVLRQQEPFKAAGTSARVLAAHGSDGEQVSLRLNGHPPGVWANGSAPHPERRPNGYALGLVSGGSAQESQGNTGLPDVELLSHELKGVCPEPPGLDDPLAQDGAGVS
Assay: biochemical
pKi values by entry
The scale used: pKi is minus the common logarithm of the concentration in molar units.

In [3]: df
Out[3]:
                                   molecule  parameter_measured   val
0       CCOC(=O)c1sc(SCc2ccccc2)c2c1CCCC2=O                 pKi  4.27
1  N=C(N)NC(=O)c1nc(Cl)c(N)nc1N [AMILORIDE]                 pKi  5.48
2      O=c1c(O)c(-c2ccccc2)oc2cc(O)cc(O)c12                 pKi  4.48
3  COC(=O)C1=C(C)NC(C)=C(C(=O)OC)C1c1ccccc1[N+](=O)[O-]                 pKi  4.65

Prompt line: Which pKi is reported for this molecule? COc1cc(OC)cc(C(CNc2ncnc3c2ncn3[C@@H]2O[C@H](CO)[C@@H](O)[C@H]2O)c2ccccc2C)c1 (stereo not given in full)
Response line: 7.44
